Assay: Primary qHTS for inhibitors of nuclear receptor binding SET domain protein 2 (NSD2) in an isogenic RCH-ACV NSD2 p.E1099K mutant (9B) (AID 1645876); further: nearly all actives have a fitted effect of over 70% in size
Conditions: RCH-ACV (leukaemia line) NSD2 E1099K (9B) viability, CellTiter-Glo, 72 h; series mostly up to 44.9 µM
Results filed as inconclusive are left out. Active and inactive are the calls of the source. The call rests on the fitted dose curve; in most records, active means well fitted inhibition curve with a large enough effect; inconclusive means small, poorly fitted or top-dose-only effect; inactive means flat fitted curve, though single readings scatter. Where a SMILES comes first, the peptide text is derived from it.
Select the matching outcome among T = active, F = inactive

# compound, answer_label
data = [
    ("COc1cc(C(N)=O)ccc1NC(=O)[C@@H]1N[C@@H](CC(C)(C)C)[C@@]2(C(=O)Nc3cc(Cl)ccc32)[C@H]1c1cccc(Cl)c1F", "T"),
]

What call does the record list for "CCN(CC)CCNC(=O)c1c(C)[nH]c(/C=C2/C(=O)Nc3ccc(-c4csc(-c5ccccc5)n4)cc32)c1C" ?
T

What call does the record list for N[C@@H](CCC(=O)O)C(=O)N[C@@H](Cc1c[nH]c2ccccc12)C(=O)O (H-Glu-Trp-OH) ?
F

What call does the record list for "COc1cc2c3c(n(CCCN4CCOCC4)c(=O)c2cc1OC)-c1cc2c(cc1C3=O)OCO2" ?
T

###

Experiment: qHTS Assay for Lipid Storage Modulators (AID 1519)
Details: Drosophila S3 cells, BODIPY lipid droplet/cell ratio, laser cytometry; measured here: cell count channel max response; cells loaded with oleic acid
Method: NIH Molecular Libraries Probe Production Centers Network [MLPCN] NIH Chemical Genomics Center [NCGC] Assay Submitter (PI): Beller, Mathias; Max-Planck-Institut fur Biophysikalische Chemie […] We dispensed 4 uL of cells at 1.25 x 10^6 cells/mL into LoBase Aurora COC 1,536-well plates (black walled, clear bottom) with a bottle-valve solenoid-based dispenser (Aurora) to obtain 5,000 cells/well. […] The ratio of the total intensity in PMT channel 1 over total intensity of channel 3 was also calculated. […]
Inconclusive results are not listed.
observation_type: max response (%)
One number for each entry, in %.

# entry_smiles, observation_type, reported
measured = [
    ("O=c1c(-c2cc(F)cc(F)c2)nc2cnc(N3CCNCC3)nc2n1C1CC1", "max response", 4.49),
    ("CN(Cc1ccco1)c1ncncc1-c1ccoc1", "max response", 22.8),
    ("COc1ncc2ncc(=O)n(Cc3cccs3)c2n1", "max response", 9.65),
    ("CN(C)c1ncc2nc(-c3cc(F)cc(F)c3)c(=O)n(CCC#N)c2n1", "max response", 19.6),
    ("CC(=O)N1CCC2(CCN(Cc3nccs3)CC2)CC1", "max response", 3.24),
    ("CS(=O)(=O)N1CCC[C@@]2(CCN(c3ccccc3)C2)C1", "max response", 2),
    ("COC(=O)N1CCC2(CC1)CN(C(=O)Nc1ccccc1)C2", "max response", -14.6),
    ("CC(=O)N1CCC2(CCN(Cc3cc(C(F)(F)F)cc(C(F)(F)F)c3)CC2)CC1", "max response", 6.37),
    ("COCCNc1cc(-c2ccccc2C(F)(F)F)ncn1", "max response", 16.6),
    ("CN(C)Cc1ccccc1-c1cc(NC2CC2)ncn1", "max response", 13),
]

Would you mind giving max response for every compound in the list below?
1. COc1ccc2[nH]cc(CCNc3ncnc4ccc(-c5cccnc5)cc34)c2c1
2. COc1ccc(Oc2ncc3nc(-c4ccc(OC)cc4)c(=O)n(Cc4cccs4)c3n2)cc1

1: -7.3; 2: 13.2

Would you mind giving max response for every compound in the list below?
1. COc1ccccc1-c1cncnc1NCCNC(C)=O
2. COc1ccc(-n2c(=O)c(-c3ccc(Cl)cc3)nc3cnc(N4CCNCC4)nc32)cc1
3. Cc1noc(C)c1C(=O)N1CCC2(CCCN(C(=O)NC(C)C)C2)CC1

1. 19.9
2. 9.83
3. 0.437

###

Test: qHTS drug screen for cell cycle checkpoint inhibitors in PARPi-resistant BRCA-mutant ovarian cancer cell lines. (AID 1963452)
Details: PEO1/OlaR viability, CellTiter-Glo luminescence, 96 h; measured here: PEO4 Z-AUC; stronger effect = lower value
Classify by Z-AUC. Ranges: lowest = under -0.4, middle = from -0.4 up to -0.2, highest = -0.2 and over

# entry_smiles, answer_label
measured = [
    ("COCCNc1cc(NC(=O)N2CCCc3cc(CN4CCN(C)CC4=O)c(C=O)nc32)ncc1C#N", "highest"),
]

Which bin should I file "Cn1ncc(NC(=O)c2nc(-c3c(F)cccc3F)sc2N)c1N1CC[C@@H](N)[C@H](F)CC1" under?
highest

Which bin should I file "C=CC(=O)N1CCC[C@H](n2c(=O)n(-c3ccc(Oc4ccccc4)cc3)c3c(N)ncnc32)C1" under?
highest

###

Molecular target: Dual specificity protein kinase CLK4 (Homo sapiens) (UniProt Q9HAZ1)
Sequence (Q9HAZ1 whole entry, looked up): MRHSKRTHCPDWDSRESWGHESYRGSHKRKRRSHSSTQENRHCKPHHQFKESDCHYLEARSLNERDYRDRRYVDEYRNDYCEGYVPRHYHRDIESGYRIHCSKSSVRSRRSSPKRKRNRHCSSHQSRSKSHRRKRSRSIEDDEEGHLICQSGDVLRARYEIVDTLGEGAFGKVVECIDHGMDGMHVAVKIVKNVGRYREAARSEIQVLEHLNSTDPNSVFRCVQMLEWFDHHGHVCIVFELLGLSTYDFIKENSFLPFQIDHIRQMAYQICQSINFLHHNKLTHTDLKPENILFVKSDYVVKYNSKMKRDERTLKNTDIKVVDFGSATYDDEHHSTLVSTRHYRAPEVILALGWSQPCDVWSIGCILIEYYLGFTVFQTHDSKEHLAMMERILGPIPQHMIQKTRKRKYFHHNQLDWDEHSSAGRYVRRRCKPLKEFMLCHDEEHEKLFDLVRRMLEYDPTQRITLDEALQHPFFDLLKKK
Assay: qHTS Assay for Inhibitors of CDC-like Kinase 4 (Kinase-Glo Assay) (AID 1770); further: nearly all actives have a fitted effect of over 65% in size
Conditions: recombinant Clk4, Kinase-Glo ATP depletion luminescence; series mostly up to 66.7 µM
Records with an inconclusive call do not appear. Active and inactive are the calls of the source. Calls follow the shape of the dose curve; as a rule, active = well fitted inhibition curve with a large enough effect; inconclusive = small, poorly fitted or top-dose-only effect; inactive = flat fitted curve, though single readings scatter.
Select the matching outcome among Y for active, N for inactive

# entry_smiles, answer_label
rows = [
    ("COc1ncc2nc(-c3cccs3)c(=O)n(CCc3ccccc3)c2n1", "N"),
    ("NCCn1c(=O)c(CCc2ccccc2)nc2cncnc21", "N"),
    ("COCCn1c(=O)c(C)nc2cnc(Oc3ccc(OC)cc3)nc21", "N"),
    ("COc1ccc(-n2c(=O)c(-c3cccs3)nc3cnc(OC)nc32)cc1", "N"),
    ("CN(C)c1ncc2ncc(=O)n(CCc3ccccc3)c2n1", "Y"),
]

What call does the record list for "Cc1cccc(CNc2cc(-c3c(C)noc3C)ncn2)c1" ?
Y

What call does the record list for "COCCn1c(=O)cnc2cnc(Nc3cccc(OC)c3)nc21" ?
Y

What call does the record list for "COCCn1c(=O)c(C)nc2cnc(N(C)C)nc21" ?
N

What call does the record list for "Cc1nc2cnc(N3CCN(C)CC3)nc2n(-c2ccccc2)c1=O" ?
N

What call does the record list for "COCCn1c(=O)cnc2cnc(N3CCN(C)CC3)nc21" ?
N

What call does the record list for "CN(C)c1ccc(-c2ccc3ncnc(N(C)C)c3c2)cc1" ?
Y

What call does the record list for "CN(C)Cc1ccccc1-c1nc(N(C)C)c2ccccc2n1" ?
N

What call does the record list for "O=c1c(-c2cccs2)nc2cncnc2n1Cc1ccccc1" ?
N

What call does the record list for "COc1cccc(Cn2c(=O)c(-c3ccc(F)cc3)nc3cnc(OC)nc32)c1" ?
N

What call does the record list for "COc1ccc(-n2c(=O)c(-c3ccc(Cl)cc3)nc3cnc(N4CCNCC4)nc32)cc1" ?
N

What call does the record list for "O=c1c(CCc2ccccc2)nc2cncnc2n1Cc1ccc(F)cc1" ?
N

What call does the record list for "CNc1ccnc(-c2ccccc2OC)n1" ?
N

###

For each entry below, report its activity, negative = inhibition value.
Test: Stat Signaling Pathway (AID 446);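 further: ME-180 cervical cancer cells given 40 pM IL-6 alongside compound; SIE-controlled beta-lactamase reporter measured as 460/530 nm FRET emission ratio; on the % scale 0 is the no-effect control and ±100 the full control effect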
Conditions: ME-180 (cervical carcinoma) SIE beta-lactamase reporter, IL-6 stimulated, 5 h; at 7.69 µM (top of the series) unless noted
Inconclusive results are not listed.
Give bare numbers, in %.

# entry_smiles, activity, negative = inhibition [%]
measured = [
    ("CC(=O)NCCNc1cc(-c2ccccc2C(F)(F)F)ncn1", 6.62),
]

Would you mind giving activity, negative = inhibition for every molecule in the list below?
1. COc1ccc(C(=O)N2CCC3(CC2)CN(c2ccncc2)C3)cc1
2. Cc1noc(C)c1-c1cc(N2CCNCC2)ncn1

1. 5.81
2. 5.3

###

Molecular target: Dual specificity protein kinase CLK4 (Homo sapiens) (UniProt Q9HAZ1)
Assay: qHTS Assay for Inhibitors of CDC-like Kinase 4 (ADP-FP Assay) (AID 1795); further: nearly all actives have a fitted effect of over 60% in size; further: potency means the concentration at half of the fitted maximal effect
Settings: Transcreener ADP fluorescence polarization; series mostly up to 50 µM
Records with an inconclusive call do not appear. Active and inactive are the calls of the source. The call rests on the fitted dose curve; in most records, active means well fitted inhibition curve with a large enough effect; inconclusive means small, poorly fitted or top-dose-only effect; inactive means flat fitted curve, though single readings scatter.
observation_type: Potency

# entry_smiles, measured_target, Potency
measured = [
    ("COc1ccc(-n2c(=O)c(-c3cccs3)nc3cnc(N(C)C)nc32)cc1", "Dual specificity protein kinase CLK4 (Homo sapiens) (UniProt Q9HAZ1)", "inactive"),
    ("Cc1noc(C)c1-c1cc(NCc2cccs2)ncn1", "Dual specificity protein kinase CLK4 (Homo sapiens) (UniProt Q9HAZ1)", "14100 nM (active)"),
    ("Cn1cc(-c2nc3cnc(Oc4ccccc4)nc3n(C3CC3)c2=O)c2ccccc21", "Dual specificity protein kinase CLK4 (Homo sapiens) (UniProt Q9HAZ1)", "inactive"),
    ("COCCNc1ncnc2ccc(-c3ccoc3)cc12", "Dual specificity protein kinase CLK4 (Homo sapiens) (UniProt Q9HAZ1)", "224 nM (active)"),
    ("COc1ccc(CNc2cc(-c3cccc(C#N)c3)ncn2)c(OC)c1", "Dual specificity protein kinase CLK4 (Homo sapiens) (UniProt Q9HAZ1)", "inactive"),
]

Would you mind giving Potency for every compound in the list below?
1. Fc1ccc(Nc2ncncc2-c2ccccc2C(F)(F)F)cc1
2. COc1ccc(CNc2cc(-c3ccccc3Cl)ncn2)c(OC)c1
3. Cc1cccc(CNc2nc(-c3ccc4c(c3)OCO4)nc3ccccc23)c1
4. Cc1nc2cnc(Nc3ccccc3)nc2n(Cc2ccc(F)cc2)c1=O

1: inactive; 2: inactive; 3: inactive; 4: inactive

Would you mind giving Potency for every compound in the list below?
1. O=c1c(-c2ccccc2)nc2cnc(N3CCOCC3)nc2n1C1CC1
2. CN(C)c1ccc(-c2nc(NCCN3CCOCC3)c3ccccc3n2)cc1
3. Cn1c(=O)c(-c2cccs2)nc2cnc(OCc3ccccc3)nc21
4. COc1ccc(-n2c(=O)cnc3cnc(N4CCN(C)CC4)nc32)cc1
5. CS(=O)(=O)Nc1cccc(-c2ccc3ncnc(NC4CCNCC4)c3c2)c1
6. COCCn1c(=O)c(-c2ccc(Cl)cc2)nc2cnc(Nc3ccccc3)nc21

1: inactive; 2: inactive; 3: inactive; 4: inactive; 5: 11200 nM (active); 6: inactive

Would you mind giving Potency for every compound in the list below?
1. COc1cccc(Cn2c(=O)cnc3cnc(Oc4ccccc4)nc32)c1
2. COCCn1c(=O)cnc2cnc(Oc3ccccc3)nc21
3. Cc1noc(C)c1-c1cncnc1NCc1ccccc1
4. O=c1c(-c2ccccc2)nc2cnc(Nc3ccccc3)nc2n1Cc1cccs1
5. CN(Cc1ccco1)c1ncncc1-c1ccccc1Cl

1. inactive
2. inactive
3. inactive
4. inactive
5. inactive

Would you mind giving Potency for every compound in the list below?
1. c1ccc(CNc2ncnc3ccc(-c4cccnc4)cc23)cc1
2. CN(C)c1ncnc2ccc(-c3ccoc3)cc12
3. CN1CCN(c2ncc3nc(-c4ccc(Cl)cc4)c(=O)n(Cc4cccs4)c3n2)CC1
4. COCCn1c(=O)cnc2cnc(Nc3cccc(OC)c3)nc21
5. Cc1nc2cnc(Nc3ccccc3)nc2n(CCC#N)c1=O
6. CNc1ncncc1-c1c(C)noc1C
7. Cn1c(=O)c(-c2cccs2)nc2cnc(N3CCNCC3)nc21
8. CCNc1ncc2nc(C)c(=O)n(Cc3cccs3)c2n1

1: 2240 nM (active); 2: 178 nM (active); 3: inactive; 4: 1260 nM (active); 5: inactive; 6: inactive; 7: inactive; 8: inactive
